B1: library; a variant is named by its letters at N, in order (parent)
chain: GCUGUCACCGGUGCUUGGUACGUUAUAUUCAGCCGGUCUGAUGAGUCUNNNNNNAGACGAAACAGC

Variants of: B1
RUN_DESCRIPTION: normalized RNA/DNA level with ligand (relative to sTRSVctl = 100) (log10 (% of sTRSVctl)); HEK293T overexpressing SLC46A1; ligand concentration (+) RNA-Seq: 6 mM; higher = less ribozyme self-cleavage, higher mRNA level
EXPERIMENTAL_CONDITIONS: with (6R,S)-folinic acid; ligand present: yes
Reported normalized RNA/DNA level with ligand (log10) values are given for each entry in this list.
# output: bare number, no unit

Solved entries (count: 5):
[
  {
    "MUTANT": "AAGCUC",
    "OBSERVED": 2.05
  },
  {
    "MUTANT": "UAGGGG",
    "OBSERVED": 1.97
  },
  {
    "MUTANT": "ACGGUA",
    "OBSERVED": 1.95
  },
  {
    "MUTANT": "UCCUUA",
    "OBSERVED": 2.05
  },
  {
    "MUTANT": "AACAGA",
    "OBSERVED": 2
  }
]

## Input Tell me its normalized RNA/DNA level with ligand (log10) given UCUGAC as the entry.
## Output 2.01

## Input Tell me its normalized RNA/DNA level with ligand (log10) given GUUCGG as the entry.
## Output 1.99

## Input Tell me its normalized RNA/DNA level with ligand (log10) given GGUCUA as the entry.
## Output 2.03

## Input Tell me its normalized RNA/DNA level with ligand (log10) given ACGCCC as the entry.
## Output 2.03

## Input Tell me its normalized RNA/DNA level with ligand (log10) given GAUAGG as the entry.
## Output 2.01

## Input Tell me its normalized RNA/DNA level with ligand (log10) given CGUCAA as the entry.
## Output 1.97

## Input Tell me its normalized RNA/DNA level with ligand (log10) given GUCAAA as the entry.
## Output 1.99

## Input Tell me its normalized RNA/DNA level with ligand (log10) given CGUGAC as the entry.
## Output 1.99

## Input Tell me its normalized RNA/DNA level with ligand (log10) given UAUAUC as the entry.
## Output 2.01

## Input Tell me its normalized RNA/DNA level with ligand (log10) given AACAUG as the entry.
## Output 2.02
